TARGET_OR_SYSTEM: ATR (Homo sapiens)
Construct: NIH-OVCAR3 cells and 9 other ovarian cancer cell lines were exposed to 4NQO ± VE-821 as indicated for 1 hr before western blotting; endogenous in cells
Sequence (Q13535 whole entry): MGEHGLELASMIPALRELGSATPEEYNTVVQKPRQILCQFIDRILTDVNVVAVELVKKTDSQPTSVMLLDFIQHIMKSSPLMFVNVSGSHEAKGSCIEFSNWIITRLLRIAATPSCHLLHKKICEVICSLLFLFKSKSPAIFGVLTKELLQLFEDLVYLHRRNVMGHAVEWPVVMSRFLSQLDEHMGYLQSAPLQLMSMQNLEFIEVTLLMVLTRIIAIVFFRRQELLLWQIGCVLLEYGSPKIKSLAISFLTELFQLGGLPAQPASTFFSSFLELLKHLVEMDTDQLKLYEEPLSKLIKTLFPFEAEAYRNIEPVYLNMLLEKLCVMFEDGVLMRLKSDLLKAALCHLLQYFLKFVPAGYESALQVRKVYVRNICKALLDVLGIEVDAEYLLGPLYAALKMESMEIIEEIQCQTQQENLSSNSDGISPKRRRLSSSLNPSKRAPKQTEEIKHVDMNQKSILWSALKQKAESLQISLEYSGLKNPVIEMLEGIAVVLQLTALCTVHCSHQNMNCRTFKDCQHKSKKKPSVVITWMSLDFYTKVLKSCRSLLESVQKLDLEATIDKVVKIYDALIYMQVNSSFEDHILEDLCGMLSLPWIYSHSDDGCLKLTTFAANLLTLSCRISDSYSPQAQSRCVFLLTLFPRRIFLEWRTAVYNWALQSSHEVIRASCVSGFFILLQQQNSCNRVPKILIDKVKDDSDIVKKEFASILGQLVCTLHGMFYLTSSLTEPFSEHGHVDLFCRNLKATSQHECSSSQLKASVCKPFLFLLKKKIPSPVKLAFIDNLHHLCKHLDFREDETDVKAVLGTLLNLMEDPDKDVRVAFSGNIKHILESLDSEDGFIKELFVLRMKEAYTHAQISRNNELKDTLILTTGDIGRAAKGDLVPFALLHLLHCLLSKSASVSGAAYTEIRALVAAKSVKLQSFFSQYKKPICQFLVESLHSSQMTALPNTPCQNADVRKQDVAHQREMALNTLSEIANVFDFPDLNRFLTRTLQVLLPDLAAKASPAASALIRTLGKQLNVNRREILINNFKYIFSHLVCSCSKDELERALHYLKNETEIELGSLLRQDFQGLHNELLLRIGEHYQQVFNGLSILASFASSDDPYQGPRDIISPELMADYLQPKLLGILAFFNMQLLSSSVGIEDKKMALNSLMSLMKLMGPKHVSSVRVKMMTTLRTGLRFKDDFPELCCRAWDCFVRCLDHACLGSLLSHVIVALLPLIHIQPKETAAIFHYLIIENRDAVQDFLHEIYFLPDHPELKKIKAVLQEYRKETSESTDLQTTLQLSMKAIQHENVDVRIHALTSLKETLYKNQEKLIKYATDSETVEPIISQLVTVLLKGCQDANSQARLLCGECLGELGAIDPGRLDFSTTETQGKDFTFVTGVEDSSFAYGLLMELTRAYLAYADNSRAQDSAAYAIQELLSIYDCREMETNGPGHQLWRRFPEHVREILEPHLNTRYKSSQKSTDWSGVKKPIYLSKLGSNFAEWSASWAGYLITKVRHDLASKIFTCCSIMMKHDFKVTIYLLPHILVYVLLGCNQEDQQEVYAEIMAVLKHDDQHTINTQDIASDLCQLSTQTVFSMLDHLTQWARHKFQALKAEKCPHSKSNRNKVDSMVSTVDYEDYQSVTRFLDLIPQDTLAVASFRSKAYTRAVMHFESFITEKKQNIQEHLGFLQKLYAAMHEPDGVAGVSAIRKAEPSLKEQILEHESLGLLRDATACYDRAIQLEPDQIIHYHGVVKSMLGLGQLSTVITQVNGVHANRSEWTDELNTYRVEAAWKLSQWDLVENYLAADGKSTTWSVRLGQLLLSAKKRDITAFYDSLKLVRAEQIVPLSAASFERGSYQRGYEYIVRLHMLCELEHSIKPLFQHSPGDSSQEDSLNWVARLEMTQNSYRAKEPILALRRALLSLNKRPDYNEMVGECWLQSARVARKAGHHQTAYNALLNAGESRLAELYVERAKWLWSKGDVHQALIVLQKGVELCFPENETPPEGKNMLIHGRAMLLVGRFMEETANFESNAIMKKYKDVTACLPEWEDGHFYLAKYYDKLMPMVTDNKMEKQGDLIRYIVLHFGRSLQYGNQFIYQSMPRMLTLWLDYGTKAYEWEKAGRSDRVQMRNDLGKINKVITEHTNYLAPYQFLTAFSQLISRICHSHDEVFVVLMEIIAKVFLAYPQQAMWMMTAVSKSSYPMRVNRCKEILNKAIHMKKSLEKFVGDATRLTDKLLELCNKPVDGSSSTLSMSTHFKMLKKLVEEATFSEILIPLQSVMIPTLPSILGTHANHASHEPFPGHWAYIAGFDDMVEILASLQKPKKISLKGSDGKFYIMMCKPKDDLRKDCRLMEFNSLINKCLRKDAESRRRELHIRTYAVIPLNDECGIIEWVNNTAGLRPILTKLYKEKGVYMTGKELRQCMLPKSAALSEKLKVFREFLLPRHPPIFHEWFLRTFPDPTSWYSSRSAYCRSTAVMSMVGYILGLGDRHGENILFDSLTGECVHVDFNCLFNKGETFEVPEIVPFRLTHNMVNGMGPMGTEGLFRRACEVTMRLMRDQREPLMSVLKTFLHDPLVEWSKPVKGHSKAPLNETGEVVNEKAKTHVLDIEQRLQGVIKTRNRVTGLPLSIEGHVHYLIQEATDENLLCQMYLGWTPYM
Sequence (Q8WXE1 whole entry partner): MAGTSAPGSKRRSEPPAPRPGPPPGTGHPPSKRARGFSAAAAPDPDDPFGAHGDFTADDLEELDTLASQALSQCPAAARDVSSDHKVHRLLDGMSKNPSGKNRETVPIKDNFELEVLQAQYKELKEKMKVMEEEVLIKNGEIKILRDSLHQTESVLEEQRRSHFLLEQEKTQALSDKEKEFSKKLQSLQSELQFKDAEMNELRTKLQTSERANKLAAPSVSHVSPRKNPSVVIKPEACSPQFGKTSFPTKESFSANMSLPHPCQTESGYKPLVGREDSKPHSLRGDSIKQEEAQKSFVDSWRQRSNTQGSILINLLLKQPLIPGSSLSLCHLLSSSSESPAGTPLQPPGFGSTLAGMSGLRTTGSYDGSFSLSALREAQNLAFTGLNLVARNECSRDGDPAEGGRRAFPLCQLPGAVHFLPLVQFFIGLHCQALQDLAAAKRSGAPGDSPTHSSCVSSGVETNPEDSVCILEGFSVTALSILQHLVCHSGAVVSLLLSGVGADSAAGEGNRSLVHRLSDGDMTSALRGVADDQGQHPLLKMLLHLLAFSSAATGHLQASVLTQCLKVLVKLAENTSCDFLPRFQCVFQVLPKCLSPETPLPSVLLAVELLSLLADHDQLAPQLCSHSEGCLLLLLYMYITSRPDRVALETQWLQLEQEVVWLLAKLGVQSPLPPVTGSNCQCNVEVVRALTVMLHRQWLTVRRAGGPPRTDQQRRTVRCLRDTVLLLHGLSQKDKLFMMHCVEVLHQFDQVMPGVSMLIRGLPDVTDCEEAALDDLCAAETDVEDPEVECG
ASSAY_INFO: ATR inhibition by western blot of pCHK1Ser345 after 4NQO, 9 other ovarian cancer cell lines
Type: cell-based
PARTICULARS: mean of 9 ovarian cell lines; 4NQO ± VE-821 for 1 hr, western blot; read-out: VE-821 IC50 ± SD (ATR inhibition, pCHK1Ser345)
VALUE_KIND: IC50 (nM)

- CS(=O)(=O)c1ccc(-c2cnc(N)c(C(=O)Nc3ccccc3)n2)cc1: 380
